tested on: Escherichia coli; test: Antibacterial activity against Escherichia coli ATCC 25922 assessed as reduction in microbial growth incubated for 16 to 20 hrs by CLSI protocol based Muller Hinton broth assay; type: functional; settings: time 16-20 hrs
Square brackets hold non-standard residues; d marks the D form. Peptide text beside a SMILES is read from it. 2Nal = N[C@@H](Cc1ccc2ccccc2c1)C(=O)O; hIle = CC[C@H](C)C[C@H](N)C(=O)O; Cha = N[C@@H](CC1CCCCC1)C(=O)O
Collected MIC values appear next to each entry.
Entry rule: numbers only, all in µM.

CC(C)C[C@H](NC(=O)[C@H](CC(C)C)NC(=O)[C@@H](NC(=O)[C@H](CCCCN)NC(=O)[C@H](Cc1ccc2ccccc2c1)NC(=O)[C@H](CCCNC(=N)N)NC(=O)[C@H](CCCCN)NC(=O)[C@H](CC(C)C)NC(=O)[C@H](CC(C)C)NC(=O)CN)[C@@H](C)O)C(N)=O (H-GLLKR[2Nal]KTLL-NH2) = 28.4
CC[C@H](C)C[C@H](NC(=O)[C@H](CCCNC(=N)N)NC(=O)[C@H](CCCCN)NC(=O)[C@H](CC(C)C)NC(=O)[C@H](CC1CCCCC1)NC(=O)CN)C(=O)N[C@@H](CCCCN)C(=O)N[C@H](C(=O)N[C@@H](CC(C)C)C(=O)N[C@@H](CC(C)C)C(N)=O)[C@@H](C)O (H-G[Cha]LKR[hIle]KTLL-NH2) = 25
CC[C@H](C)[C@H](NC(=O)[C@H](Cc1c[nH]c2ccccc12)NC(=O)[C@H](CCCCN)NC(=O)[C@H](CC(C)C)NC(=O)[C@H](CC(C)C)NC(=O)CN)C(=O)N[C@@H](CCCCN)C(=O)N[C@@H](CCCCN)C(=O)N[C@@H](CC(C)C)C(=O)N[C@@H](CC(C)C)C(N)=O (H-GLLKWIKKLL-NH2) = 3.2
CC[C@H](C)C[C@H](NC(=O)[C@H](CCCNC(=N)N)NC(=O)[C@H](CCCCN)NC(=O)[C@H](CC(C)C)NC(=O)[C@H](CC(C)C)NC(=O)CN)C(=O)N[C@@H](CCCCN)C(=O)N[C@H](C(=O)N[C@@H](CC(C)C)C(=O)N[C@@H](CC1CCCCC1)C(N)=O)[C@@H](C)O (H-GLLKR[hIle]KTL[Cha]-NH2) = 12.5
CC[C@H](C)[C@H](NC(=O)[C@H](CCCNC(=N)N)NC(=O)[C@H](CCCCN)NC(=O)[C@H](CC(C)C)NC(=O)[C@H](Cc1ccc2ccccc2c1)NC(=O)CN)C(=O)N[C@@H](CCCCN)C(=O)N[C@H](C(=O)N[C@@H](CC(C)C)C(=O)N[C@@H](CC(C)C)C(N)=O)[C@@H](C)O (H-G[2Nal]LKRIKTLL-NH2) = 15.8
CC[C@H](C)C[C@H](NC(=O)[C@H](CCCNC(=N)N)NC(=O)[C@H](CCCCN)NC(=O)[C@H](CC(C)C)NC(=O)[C@H](CC(C)C)NC(=O)CN)C(=O)N[C@@H](CCCCN)C(=O)N[C@H](C(=O)N[C@@H](CC1CCCCC1)C(=O)N[C@@H](CC(C)C)C(N)=O)[C@@H](C)O (H-GLLKR[hIle]KT[Cha]L-NH2) = 28.4

QUERY: For the compound CC[C@H](C)C[C@H](NC(=O)[C@H](CCCNC(=N)N)NC(=O)[C@H](CCCCN)NC(=O)[C@H](CC1CCCCC1)NC(=O)[C@H](CC(C)C)NC(=O)CN)C(=O)N[C@@H](CCCCN)C(=O)N[C@H](C(=O)N[C@@H](CC(C)C)C(=O)N[C@@H](CC(C)C)C(N)=O)[C@@H](C)O (H-GL[Cha]KR[hIle]KTLL-NH2) , report MIC.
RESULT: 28.4
